Tested on: Mycobacterium tuberculosis
test-protocol: Antitubercular activity against Mycobacterium tuberculosis M299 assessed as reduction in microbial growth after 5 days by MTT assay
Assay type: functional, organism-based
condition-description: M299, 120 h
Criterion: IC50 strictly less than 8 µM. Met: true. Not met: false.

INSERT INTO assay_data (entry_smiles, category_label) VALUES
  ('CO[C@H]1/C=C/O[C@@]2(C)Oc3c(C)c(O)c4c(O)c(c(/C=N/N5CCN(C)CC5)c(O)c4c3C2=O)NC(=O)/C(C)=C\C=C\[C@H](C)[C@H](O)[C@@H](C)[C@@H](O)[C@@H](C)[C@H](OC(C)=O)[C@@H]1C', 'true'),
  ('S=C(NCc1ccccc1)Nc1ccc2c(c1)OCCO2', 'false'),
  ('O=C(NNC(=S)NCc1ccccc1)c1ccncc1', 'true'),
  ('O=C(O)c1ccc(NC(=S)NCc2ccccc2)cc1O', 'false'),
  ('COc1cc(NC(=S)NCCc2ccccc2)cc(OC)c1OC', 'false');

----------
test-protocol: Selectivity index, ratio of CC50 for cytotoxicity against LPS-stimulated mouse RAW264.7 cells to MIC50 for antitubercular activity against Mycobacterium tuberculosis H37Rv
Assay type: toxicity, cell-based
condition-description: LPS-stimulated RAW264.7 cells, read-out: Selectivity Index
Reported selectivity ratio is given for each of the following molecules.
measurement-label: selectivity ratio

INSERT INTO results (entry_smiles, measurement_label, reported) VALUES
  ('COc1cc(NC(=S)NC#N)cc(OC)c1OC', 'selectivity ratio', '> 1.1'),
  ('S=C(NCCc1ccccc1)N1CCOCC1', 'selectivity ratio', '> 1'),
  ('S=C(NCc1ccccc1)N1CCN(Cc2ccc3c(c2)OCO3)CC1', 'selectivity ratio', 15.9);
